- TEST SYSTEM: EGFR (ErbB1) T790M L858R (Homo sapiens, UniProt P00533, L858R/T790M)
- Construct: purchased Invitrogen
- Sequence (P00533 25-1210 T790M/L858R): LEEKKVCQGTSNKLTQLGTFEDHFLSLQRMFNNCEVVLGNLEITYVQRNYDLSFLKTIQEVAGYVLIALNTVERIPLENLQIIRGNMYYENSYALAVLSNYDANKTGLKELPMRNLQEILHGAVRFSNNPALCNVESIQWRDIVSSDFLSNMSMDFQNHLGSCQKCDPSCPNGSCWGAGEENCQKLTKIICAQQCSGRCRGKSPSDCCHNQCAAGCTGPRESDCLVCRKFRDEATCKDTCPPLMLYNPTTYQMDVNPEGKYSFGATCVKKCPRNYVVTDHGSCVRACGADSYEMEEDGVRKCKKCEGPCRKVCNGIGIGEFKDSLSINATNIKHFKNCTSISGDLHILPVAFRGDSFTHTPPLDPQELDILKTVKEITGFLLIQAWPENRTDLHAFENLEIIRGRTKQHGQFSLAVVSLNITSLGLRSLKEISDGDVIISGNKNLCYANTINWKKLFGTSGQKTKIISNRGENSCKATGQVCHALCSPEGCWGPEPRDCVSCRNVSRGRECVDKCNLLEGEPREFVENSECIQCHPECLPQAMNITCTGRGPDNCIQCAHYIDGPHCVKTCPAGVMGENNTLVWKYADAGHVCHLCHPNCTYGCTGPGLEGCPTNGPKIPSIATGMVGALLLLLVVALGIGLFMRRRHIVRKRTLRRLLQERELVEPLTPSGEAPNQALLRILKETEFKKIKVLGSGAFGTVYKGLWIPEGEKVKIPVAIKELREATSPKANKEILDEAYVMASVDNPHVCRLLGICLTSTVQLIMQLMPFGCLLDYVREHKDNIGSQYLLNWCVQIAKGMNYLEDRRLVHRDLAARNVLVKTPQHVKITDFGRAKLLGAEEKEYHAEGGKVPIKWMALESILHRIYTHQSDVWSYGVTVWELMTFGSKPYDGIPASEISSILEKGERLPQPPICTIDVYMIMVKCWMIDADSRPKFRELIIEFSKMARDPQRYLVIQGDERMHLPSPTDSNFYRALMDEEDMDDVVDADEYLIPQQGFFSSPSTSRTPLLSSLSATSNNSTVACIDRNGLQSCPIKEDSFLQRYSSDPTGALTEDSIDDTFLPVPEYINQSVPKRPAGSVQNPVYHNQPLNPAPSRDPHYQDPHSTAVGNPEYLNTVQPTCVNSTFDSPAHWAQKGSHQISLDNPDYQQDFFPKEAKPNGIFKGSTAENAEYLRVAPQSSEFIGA
- TEST DESCRIPTION: Z'-LYTE kinase inhibition assay (Invitrogen), EGFR L858R/T790M
- Format: biochemical
- CONDITION DESCRIPTION: compound at 13.7 nM; 10 μM of ATP
MEASUREMENT LABEL: inhibition at 0.0137 µM

> print(dat)
                                   compound  measured.value
1  C=CC(=O)Nc1cc(Nc2ncc3cccc(-c4ccccc4F)c3n2)ccc1N(C)CCN(C)C [Example C009]           > 50%
2  C=CC(=O)Nc1cc(Nc2ncc3cccc(-c4cccc(Cl)c4)c3n2)ccc1N1CCOCC1 [Example C016]           < 50%
3  C=CC(=O)Nc1cc(Nc2ncc3cccc(OC)c3n2)ccc1N(C)CCN(C)C [Example C003]           < 50%
4  C=CC(=O)Nc1cc(Nc2ncc3cccc(-c4ccccc4Cl)c3n2)ccc1N(C)CCN(C)C [Example C008]           > 50%

====

- TEST SYSTEM: BTK (Homo sapiens, UniProt Q06187)
- Construct: purchased Invitrogen
- Sequence (Q06187 whole entry): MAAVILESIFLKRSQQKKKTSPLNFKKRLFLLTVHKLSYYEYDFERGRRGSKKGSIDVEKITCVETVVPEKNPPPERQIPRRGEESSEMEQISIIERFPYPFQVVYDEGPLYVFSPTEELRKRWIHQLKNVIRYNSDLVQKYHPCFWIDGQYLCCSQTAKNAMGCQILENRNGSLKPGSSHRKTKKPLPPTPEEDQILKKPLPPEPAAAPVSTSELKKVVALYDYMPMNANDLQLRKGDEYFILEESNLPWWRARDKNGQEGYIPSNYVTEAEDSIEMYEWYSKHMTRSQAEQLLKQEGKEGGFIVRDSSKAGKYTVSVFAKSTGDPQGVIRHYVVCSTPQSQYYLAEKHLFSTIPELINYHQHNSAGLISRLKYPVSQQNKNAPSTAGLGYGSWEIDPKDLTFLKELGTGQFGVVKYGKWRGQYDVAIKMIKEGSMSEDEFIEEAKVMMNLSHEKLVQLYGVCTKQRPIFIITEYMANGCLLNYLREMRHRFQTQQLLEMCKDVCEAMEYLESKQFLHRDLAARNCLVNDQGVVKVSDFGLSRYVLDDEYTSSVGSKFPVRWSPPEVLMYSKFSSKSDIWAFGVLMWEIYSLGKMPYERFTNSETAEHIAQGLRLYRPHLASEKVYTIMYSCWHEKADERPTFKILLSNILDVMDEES
- TEST DESCRIPTION: Z'-LYTE kinase inhibition assay (Invitrogen), BTK
- Format: biochemical
- CONDITION DESCRIPTION: compound at 100 nM; [ATP] = Km
MEASUREMENT LABEL: inhibition at 0.1 µM

> print(dat)
                                   compound     measurement.label  measured.value
1  C=CC(=O)Nc1cc(Nc2ncc3cccc(-c4ccccc4Cl)c3n2)ccc1N(C)CCN(C)C [Example C008]  inhibition at 0.1 µM           > 50%
2  C=CC(=O)Nc1cc(Nc2ncc3cccc(-c4cccc(Cl)c4)c3n2)c(OC)cc1OC1CCN(C)C1 (stereo not shown) [Example C020]  inhibition at 0.1 µM           > 50%
3  C=CC(=O)N1CCCC(n2cnc3cnc(Nc4ccc(N5CCN(C)CC5)c(F)c4)nc32)C1 (stereo not shown) [Example A009]  inhibition at 0.1 µM           > 50%
4  C=CC(=O)Nc1cccc(-n2cnc3cnc(Nc4ccc(N5CCN(CCO)CC5)cc4F)nc32)c1 [Example A003]  inhibition at 0.1 µM           < 50%

====

- TEST SYSTEM: BTK (Homo sapiens)
- Construct: purchased Invitrogen
- TEST DESCRIPTION: Z'-LYTE kinase inhibition assay (Invitrogen), BTK
- Type: biochemical
- CONDITION DESCRIPTION: compound at 100 nM; [ATP] = Km
MEASUREMENT LABEL: inhibition at 0.1 µM

> print(dat)
                                    compound  measured.value
 1  C=CC(=O)N1CCC(n2cnc3cnc(Nc4ccc(N5CCN(CCO)CC5)cc4)nc32)C1 (stereo not shown)           > 50%
 2  C=CC(=O)Nc1cccc(-n2cnc3cnc(Nc4ccc(N5CCN(CCO)CC5)c(F)c4F)nc32)c1           < 50%
 3  C=CC(=O)N1CCCC(n2cnc3cnc(Nc4ccc(N5CCN(CCO)CC5)c(F)c4)nc32)C1 (stereo not shown)           > 50%
 4  C=CC(=O)N1CCC(n2cnc3cnc(Nc4ccc(N5CCN(C)CC5)cc4)nc32)C1 (stereo not shown)           > 50%
 5  C=CC(=O)Nc1cccc(-n2cnc3cnc(Nc4ccc(N5CCN(C)CC5)cc4F)nc32)c1           < 50%
 6  C=CC(=O)Nc1cc(Nc2ncc3cccc(-c4cncc(F)c4)c3n2)ccc1N(C)CCN(C)C           > 50%
 7  C=CC(=O)Nc1cc(Nc2ncc3cccc(OC)c3n2)ccc1N(C)CCN(C)C           < 50%
 8  C=CC(=O)Nc1cc(Nc2ncc3cccc(-c4ccccc4F)c3n2)ccc1N(C)CCN(C)C           > 50%
 9  C=CC(=O)Nc1cc(Nc2ncc3cccc(-c4cccc(Cl)c4)c3n2)ccc1OCCN(C)C           > 50%
10  C=CC(=O)Nc1cc(Nc2ncc3cccc(-c4cncc(Cl)c4)c3n2)ccc1N(C)CCN(C)C           > 50%
11  C=CC(=O)Nc1cc(Nc2ncc3cccc(-c4cccc(Cl)c4)c3n2)ccc1OC1CCN(C)CC1           > 50%
12  C=CC(=O)N1CCC(n2cnc3cnc(Nc4ccc(N5CCN(CCO)CC5)c(F)c4F)nc32)C1 (stereo not shown)           < 50%
13  C=CC(=O)Nc1cc(Nc2ncc3cccc(-c4cccc(F)c4)c3n2)c(OC)cc1OC1CCN(C)C1 (stereo not shown)           > 50%
14  C=CC(=O)N1CCC(n2cnc3cnc(Nc4ccc(N5CCN(C)CC5)c(F)c4F)nc32)C1 (stereo not shown)           < 50%
15  C=CC(=O)Nc1cc(Nc2ncc3cccc(-c4cccc(F)c4)c3n2)c(OC)cc1N1CCC(N(C)C)C1 (stereo not shown)           > 50%
16  C=CC(=O)Nc1cccc(-n2cnc3cnc(Nc4ccc(N5CCN(CCO)CC5)cc4)nc32)c1           > 50%

====

- TEST SYSTEM: BTK (Homo sapiens)
- Construct: purchased Invitrogen
- TEST DESCRIPTION: Z'-LYTE kinase inhibition assay (Invitrogen), BTK
- Assay type: biochemical
- CONDITION DESCRIPTION: compound at 100 nM; [ATP] = Km
MEASUREMENT LABEL: inhibition at 0.1 µM

> print(dat)
                                   molecule  measured.value
1  C=CC(=O)N1CCC(n2cnc3cnc(Nc4ccc(N5CCN(C)CC5)c(F)c4)nc32)C1 (centres unmarked) [Example A004]           > 50%
2  C=CC(=O)Nc1cc(Nc2ncc3cccc(-c4cccc(F)c4)c3n2)ccc1N1CC(N(C)C)C1 [Example C025]           > 50%
3  C=CC(=O)N1CCC(n2cnc3cnc(Nc4ccc(N5CCN(CCO)CC5)c(F)c4)nc32)C1 (centres unmarked) [Example A007]           > 50%
4  C=CC(=O)N1CCCC(n2cnc3cnc(Nc4ccc(N5CCN(C)CC5)cc4F)nc32)C1 (centres unmarked) [Example A018]           < 50%
5  C=CC(=O)N1CCC(n2cnc3cnc(Nc4ccc(N5CCN(C)CC5)cc4F)nc32)C1 (centres unmarked) [Example A017]           < 50%
6  C=CC(=O)Nc1cc(Nc2ncc3cccc(-c4ccccc4Cl)c3n2)ccc1OCCN(C)C [Example C014]           > 50%
7  C=CC(=O)N1CCC(n2cnc3cnc(Nc4ccc(N5CCN(CCO)CC5)cc4F)nc32)C1 (centres unmarked) [Example A008]           < 50%
8  C=CC(=O)Nc1cc(Nc2ncc3cccc(-c4cccc(Cl)c4)c3n2)ccc1OCCOC [Example C015]           < 50%

====

- TEST SYSTEM: EGFR (ErbB1) T790M L858R (Homo sapiens, UniProt P00533, L858R/T790M)
- Construct: purchased Invitrogen
- TEST DESCRIPTION: Z'-LYTE kinase inhibition assay (Invitrogen), EGFR L858R/T790M
- Type: biochemical
- CONDITION DESCRIPTION: compound at 100 nM; [ATP] = Km
- Experimental: Inhibitory activities of compounds against BTK, EGFR and EGFR mutants (EGFR L858R/T790M) were measured by Invitrogen using Z′-LYTE® Method as briefly described in the following. Test Compounds are screened in 1% DMSO (final) in the well. For 10 point titrations, 3-fold serial dilutions are conducted from the starting concentration. All ATP Solutions are diluted to a 4× working concentration in Kinase Buffer (50 mM HEPES pH 7.5, 0.01% BRIJ-35, 10 mM MgCl2, 1 mM EGTA). […]
As shown below, each of these compounds has a reported inhibition at 0.1 µM value.
MEASUREMENT LABEL: inhibition at 0.1 µM

> print(dat)
                                   compound  measured.value
1  C=CC(=O)Nc1cccc(-n2cnc3cnc(Nc4ccc(N5CCN(CCO)CC5)c(F)c4)nc32)c1 [Example A020]           > 50%
2  C=CC(=O)Nc1cccc(-n2cnc3cnc(Nc4ccc(N5CCN(CCO)CC5)cc4)nc32)c1 [Example A015]           < 50%
3  C=CC(=O)Nc1cc(Nc2ncc3cccc(-c4cccnc4)c3n2)ccc1N(C)CCN(C)C [Example C010]           < 50%
